Each recorded value in this set is attributed to patent US10112929B2.

Target: UniProt O75116
Sequence (O75116 whole entry, species assumed): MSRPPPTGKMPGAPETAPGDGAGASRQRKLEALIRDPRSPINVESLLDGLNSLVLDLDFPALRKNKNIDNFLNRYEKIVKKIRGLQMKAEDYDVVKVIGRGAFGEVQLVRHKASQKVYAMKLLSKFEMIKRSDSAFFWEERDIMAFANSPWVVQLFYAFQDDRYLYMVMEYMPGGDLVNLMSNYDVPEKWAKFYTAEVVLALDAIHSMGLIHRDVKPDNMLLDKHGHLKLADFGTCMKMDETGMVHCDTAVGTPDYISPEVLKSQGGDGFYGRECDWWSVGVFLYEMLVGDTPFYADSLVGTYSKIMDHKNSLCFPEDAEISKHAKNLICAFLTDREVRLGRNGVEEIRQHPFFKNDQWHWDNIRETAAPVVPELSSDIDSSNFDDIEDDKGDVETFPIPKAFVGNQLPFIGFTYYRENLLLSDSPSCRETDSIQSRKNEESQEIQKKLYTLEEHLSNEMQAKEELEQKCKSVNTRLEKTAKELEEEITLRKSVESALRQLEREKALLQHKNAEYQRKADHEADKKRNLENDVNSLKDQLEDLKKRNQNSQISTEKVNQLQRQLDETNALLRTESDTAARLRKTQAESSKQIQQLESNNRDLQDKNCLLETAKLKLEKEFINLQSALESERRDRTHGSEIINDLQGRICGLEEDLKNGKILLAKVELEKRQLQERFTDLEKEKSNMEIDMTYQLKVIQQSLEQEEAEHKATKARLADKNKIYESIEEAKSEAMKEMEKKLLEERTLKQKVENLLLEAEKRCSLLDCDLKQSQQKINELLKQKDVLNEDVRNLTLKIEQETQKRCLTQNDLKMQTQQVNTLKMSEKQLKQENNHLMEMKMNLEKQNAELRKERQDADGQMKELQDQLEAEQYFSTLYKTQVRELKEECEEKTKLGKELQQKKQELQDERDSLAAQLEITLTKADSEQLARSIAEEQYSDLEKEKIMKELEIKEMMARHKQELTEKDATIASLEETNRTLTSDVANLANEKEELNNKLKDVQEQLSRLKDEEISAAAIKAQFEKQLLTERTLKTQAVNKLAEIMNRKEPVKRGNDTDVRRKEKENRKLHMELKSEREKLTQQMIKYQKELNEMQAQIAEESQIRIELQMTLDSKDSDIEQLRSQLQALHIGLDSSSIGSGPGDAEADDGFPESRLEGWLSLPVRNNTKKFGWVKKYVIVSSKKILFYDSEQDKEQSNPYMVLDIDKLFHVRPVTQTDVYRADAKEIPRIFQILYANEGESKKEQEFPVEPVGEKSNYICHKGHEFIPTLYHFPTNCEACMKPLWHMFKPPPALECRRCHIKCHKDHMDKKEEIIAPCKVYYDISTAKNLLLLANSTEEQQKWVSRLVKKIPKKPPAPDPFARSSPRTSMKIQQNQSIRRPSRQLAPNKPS
Assay: biochemical;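 further: rho kinase enzyme reaction halted with EDTA, phospho- and non-phospho peptide separated for read-out, kinase activity inhibition derived across a dose-response series, DMSO under 2%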
pIC50: −log10 of the molar value.
METRIC: pIC50

Recorded results for 8 molecules are shown here.
COc1cccc(NC2CCN(c3ccc(-c4cn[nH]c4)c(C)n3)C2=O)c1 (single isomer, unassigned) [Example 189] | > 8.00
O=C1C(Nc2cccc(OCC3CC3)c2)CCN1c1ccc(-c2cn[nH]c2)cn1 (single isomer, unassigned) [Example 319] | 7.00 to 8.00
COc1cccc(CCC2CCN(c3ccc(-c4cn[nH]c4)cc3)C2=O)c1 (stereo not drawn) [Example 99] | 7.00 to 8.00
O=C1C(c2ccccc2F)CCN1c1ccc(-c2cn[nH]c2)cc1 (stereo not drawn) [Example 104] | 7.00 to 8.00
COc1cc(NC2CCN(c3cc(F)c(-c4cn[nH]c4)cc3F)C2=O)ccc1F (single isomer, unassigned) [Example 350] | 5.66 to 7.00
COc1nc(N2CCC(N3CCNc4ccccc43)C2=O)ccc1-c1cn[nH]c1 (racemic) [Example 228] | > 8.00
COc1cc(NC2CCN(c3ccc(-c4cn[nH]c4)c(OC)c3)C2=O)ccc1F (single isomer, unassigned) [Example 154] | 5.66 to 7.00
COc1cc(F)cc(NC2CCN(c3cc(F)c(-c4cn[nH]c4)cc3F)C2=O)c1 (single isomer, unassigned) [Example 352] | > 8.00

[in] Entry under review: COCc1cc(N2CCC(Nc3ccc(F)c(OC)c3)C2=O)ccc1-c1cn[nH]c1 (single isomer, unassigned) [Example 181] . Reported pIC50?
[out] 5.66 to 7.00

[in] Note, next up: COc1cc(NC2CCN(c3ccc(-c4cn[nH]c4)cc3)C2=O)cc(OC)c1 (single isomer, unassigned) [Example 21]
[out] 5.66 to 7.00

[in] Note, next up: O=C1C(Nc2cccnc2)CCN1c1ccc(-c2cn[nH]c2)cc1 (stereo not drawn) [Example 9]
[out] 7.00 to 8.00

[in] Note, next up: COc1cccc(N[C@H]2C(=O)N(c3ccc(-c4cn[nH]c4)cc3)C[C@@H]2CO)c1 [Example 133]
[out] > 8.00
